B1: MEF2-activating motif and SAP domain-containing transcriptional regulator, residues 170 to 204; numbered along this chain, Q6ZN01 (parent)
chain: LKLEELTVSELRQQLRLRGLPVSGTKSMLLERMRG

variants of: B1; assay: abundance fitness (aPCA) (normalised: wild type 0, dead -1); higher = more abundant; growth selection in yeast, the domain comes from the species named; settings: Homo sapiens
Provide the reported abundance fitness of each item.
Answers are plain numbers.

For the 3 variants below, give their abundance fitness values.
1. R32G
2. L15Q
3. Q13I

1. -0.326
2. -0.339
3. -0.036

Please state, for each entry, its recorded abundance fitness.
1. Q13E
2. L17V
3. R32A
4. V22T

[-0.1, -0.054, -0.459, 0.152]

Dear colleague, could you send me abundance fitness for each of the items below? Thanks.
1. T7P
2. M28H
3. M28F
4. E5S

[-0.227, -0.003, -0.616, -0.188]

Batch request: abundance fitness per item, same order as input.
1. L11A
2. Q14Y
3. V22I
4. S23N
5. T25R
6. V22D
7. L3A

1. -0.678
2. -0.326
3. -0.262
4. -0.02
5. -0.497
6. -0.046
7. -0.275
